// % Positive for TIM3 lookup, one value per entry
# Assayed target: T1, T cell Immunoglobulin- and Mucin domain-containing molecule 3 (TIM3), human, on cells (human, UniProt Q8TDQ0 22-301)
# T1 construct: TIM3 as carried by human cell lines (Pfeiffer, Daudi, CMK) and by primary cells of patients; also called HAVCR2; KIM-3
# T1 sequence: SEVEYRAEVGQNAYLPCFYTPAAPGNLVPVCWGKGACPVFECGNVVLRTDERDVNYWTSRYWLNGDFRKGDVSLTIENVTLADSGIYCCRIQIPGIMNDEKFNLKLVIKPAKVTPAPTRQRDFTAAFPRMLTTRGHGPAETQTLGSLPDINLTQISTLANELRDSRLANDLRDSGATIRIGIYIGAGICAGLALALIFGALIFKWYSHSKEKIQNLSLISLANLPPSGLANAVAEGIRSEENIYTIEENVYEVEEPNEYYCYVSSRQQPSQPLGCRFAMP
# Test: flow cytometry; cells not named in the table (Example 5 uses Pfeiffer cells)

Binder	% Positive for TIM3, %
7.10F6 (antibody, IgG1, V domains shown, also called 7.10F6.1; 7.10F6.1-pure) VH: EVQLVESGGGLVQPGGSLKLSCAASGFIFSGYGMSWVRQTPDKRLELVAIINSNGGSVDYPDSVKGRVTISRDNAKNTLYLQMSSLKSEDTAMYYCARIYYRCMDYWGQGTSVTVSS VL: NIMMTQSPSSLAVSAGEKVTMSCKSSQSLLYSSNQKNYLAWYQQKPGQSPKLLIYWASARESGVPDRFTGGGSGTDFTLTISSVQAEDLAVYYCHQYLSSYTFGGGTKLEIKR	93.3
1.7E10.12-Biotin (antibody, V domains shown, 1.7E10 (mouse IgG1,k) biotinylated with the EZ-link Sulfo NHS-LC-Biotinylated kit) VH: EVKLLESGGGLVQPGGSLKLSCAASGFDFSRYWMSWVRQAPGKGLEWIGEINPDSSTINYTPSLKDKFIISRDNAKNTLFLQMSKVRSEDTALYYCARPSYDGYYGYAMDYWGQGTSVTVSS VL: DIVLTQSPASLAVSLGQRATISCRASESVDSYGKSFMHWYQQKPGQPPKLLIYRASNLESGIPARFSGSGSRTDFTLTINPVEADDVATYYCQQSNEDPYTFGGGTKLEIKR	99.2
9.1G12.8-BZAP (antibody, V domains shown, Biotinylated 9.1G12 (mouse IgG2b,l) conjugated to streptavidin-saporin (SAv-ZAP); also called 9.1G12-BZAP) VH: EVMLVESGGGLVKPGGSLKLSCAASGFTFSSYAMSWVRQTPERKLEWVATISSGGTYTYYPDSVKGRFTISRDNAKNRLYLQMSGLRSEGTAMYYCVRPDYTHDDGGFAYWGQGTLVTVSA VL: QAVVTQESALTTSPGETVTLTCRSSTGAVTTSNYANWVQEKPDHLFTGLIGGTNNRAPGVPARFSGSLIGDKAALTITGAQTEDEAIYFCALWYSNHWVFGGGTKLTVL	97.4
